meta.source: patent US20240052052A1

Measured pEC50 by item
- TESTED ON: T1, human CD24 (human, UniProt P25063 27-59, heavily glycosylated, GPI-anchored (as described in the background))
- T1 construct: whole, on cells; Target of all cell-based FACS assays; also called hCD24; Cluster of differentiation 24
- T1 chain (looked up): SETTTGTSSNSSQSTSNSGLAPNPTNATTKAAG
- METHOD NOTES: FACS, MDA-MB-468 cells
Conceptually, pEC50 converts a concentration in mol/L into minus its log10.

# pEC50 (binder: SN3 (antibody, V domains shown) VH: QVQLKESGPGLVAPSQSLSITCTVSGFSLTSYGVHWVRQPPGKGLEWLGVIWAGGSTNYNSALMSRLSISKDNSKSQVFLKMNSLQTDDTAMYYCAVYYGYLFFAYWGQGTLVTVSA VL: ENVLTQSPAIMSASPGEKVTMTCSASSSVSYMHWYQQKSTTSPKLWIYDTSKLASGVPGRFSGSGSGNSYSLTISSMEAEDVATYYCFQGSGYPLTFGGGTKLEIK ) is 8.38
